- Test system: P. falciparum (NF54 or 3D7 strain)
- experimentalProtocol: Assay for P. falciparum proliferation in infected human blood cells (SYBR Green)
- Type: cell-based, Plasmodium falciparum
- testSettings: Plasmodium falciparum, Erythrocyte, 72 h, NF54 or 3D7 infected human erythrocytes, 72 hours; read-out: EC50 (nM), inhibitory efficacy in delaying P. falciparum proliferation in infected human blood cells
EC50 overview
Dear colleague, please return just the value in nM, with no unit written.

Below, each entry is followed by its recorded EC50 result.
Query string: Need EC50 of COc1cc(C#N)ccc1N(C)C(=O)c1cn2c(-c3ccc(C(F)(F)F)cc3)cnc2cn1 [Compound 503] , thanks.
Result string: 60

Query string: Here is the next compound: CN(C(=O)c1cn2c(-c3ccc4c(cnn4C)c3)cnc2cn1)c1ccc(Cl)cc1 [Compound 480]
Result string: 25

Query string: Here is the next compound: CN(C(=O)c1cn2c(-c3ccc(-c4cc[nH]n4)cc3)cnc2cn1)c1ccc(C#N)cc1 [Compound 484]
Result string: 20

Others:
Query string: Need EC50 of CN(C(=O)c1cn2c(-c3ccc(-c4nnn[nH]4)cc3)cnc2cn1)c1ccc(C#N)cc1 [Compound 180] , thanks.
Result string: 4340

Query string: Here is the next compound: CNc1nnc(-c2ccc(-c3cnc4cnc(C(=O)N(C)c5ccc(F)cc5)cn34)cc2)o1 [Compound 478]
Result string: 31

Query string: Here is the next compound: CN(C)CCCOc1ccc(-c2cnc3cnc(C(=O)N(C)c4ccc(C#N)cc4)cn23)cn1 [Compound 1]
Result string: 477

Query string: Here is the next compound: Cc1ccc(N(C)C(=O)c2cn3c(-c4ccc(C(F)(F)F)cc4)cnc3cn2)cn1 [Compound 277]
Result string: 1130

Query string: Here is the next compound: CN(C(=O)c1cn2c(-c3ccc(C(F)(F)F)cc3)cnc2cn1)c1ccc(OC(F)(F)F)cc1 [Compound 173]
Result string: 4250
